Reference source for all entries: ChEMBL document CHEMBL3351402

# Assay Target: DNA gyrase subunit B (Mycobacterium smegmatis, UniProt P0C559)
# Sequence (P0C559 whole entry): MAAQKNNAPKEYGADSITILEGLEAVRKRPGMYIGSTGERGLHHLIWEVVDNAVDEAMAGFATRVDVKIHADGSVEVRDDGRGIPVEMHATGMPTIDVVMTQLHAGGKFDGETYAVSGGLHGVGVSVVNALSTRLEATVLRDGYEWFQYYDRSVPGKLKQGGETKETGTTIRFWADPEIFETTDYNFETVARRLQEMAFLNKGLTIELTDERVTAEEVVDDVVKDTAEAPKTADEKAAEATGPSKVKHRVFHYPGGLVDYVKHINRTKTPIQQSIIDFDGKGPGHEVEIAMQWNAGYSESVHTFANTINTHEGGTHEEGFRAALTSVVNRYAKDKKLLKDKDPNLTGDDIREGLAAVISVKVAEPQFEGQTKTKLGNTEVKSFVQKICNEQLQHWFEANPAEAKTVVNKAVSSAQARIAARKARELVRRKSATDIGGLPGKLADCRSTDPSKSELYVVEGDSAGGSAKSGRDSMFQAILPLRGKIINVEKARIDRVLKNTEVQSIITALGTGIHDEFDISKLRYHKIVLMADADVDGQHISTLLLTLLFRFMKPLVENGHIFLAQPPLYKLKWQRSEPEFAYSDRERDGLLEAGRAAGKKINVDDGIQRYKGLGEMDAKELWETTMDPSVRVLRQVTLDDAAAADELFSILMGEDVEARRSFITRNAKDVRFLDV
# Test Summary: Inhibition of purified Mycobacterium smegmatis GyrB at 50 to 100 uM after 100 mins by ATPase assay
Field 'label' (enum: Yes / No). Set to Yes when IC50 is strictly under 20 µM; else No.

State whether 20 µM exceeds IC50 recorded for CCOC(=O)c1cc2cc(N3CCN(C(=O)Nc4ccccc4)CC3)ccc2o1 .
Yes

Is IC50 of CCOC(=O)c1cc2cc(N3CCN(C(=S)Nc4ccc([N+](=O)[O-])cc4)CC3)ccc2o1 strictly below 20 µM?
Yes

Quick check: does CCOC(=O)c1cc2cc(N3CCN(C(=O)Nc4ccc(C(C)=O)cc4)CC3)ccc2o1 have IC50 under 20 µM?
Yes

Strictly below 20 µM: is that where IC50 of CCOC(=O)c1cc2cc(N3CCN(C(=S)Nc4ccc(C(C)=O)cc4)CC3)ccc2o1 sits?
No

Here's an entry: O=[N+]([O-])c1ccc(NC(=S)N2CCN(c3nsc4ccccc34)CC2)cc1 . Is its IC50 below 20 µM?
Yes

Please determine if CCOC(=O)c1cc2cc(N3CCN(C(=S)Nc4ccccc4)CC3)ccc2o1 is below 20 µM in terms of IC50.
Yes

Please let me know if CCOC(=O)c1cc2cc(N3CCN(C(=O)Nc4ccc([N+](=O)[O-])cc4)CC3)ccc2o1 shows IC50 below 20 µM.
Yes

Determine if O=C(Nc1ccc([N+](=O)[O-])cc1)N1CCN(c2nsc3ccccc23)CC1 shows IC50 strictly lower than 20 µM.
No

Confirm or reject: IC50 of CCOC(=O)c1cc2cc(N3CCN(C(=S)Nc4ccc(OC)cc4)CC3)ccc2o1 lies strictly below 20 µM
No

* * *

# Assay Target: DNA gyrase subunit A/DNA gyrase subunit B (Mycobacterium tuberculosis (strain ATCC 25618 / H37Rv), UniProt P9WG45+P9WG47)
# Sequence (P9WG45 whole entry): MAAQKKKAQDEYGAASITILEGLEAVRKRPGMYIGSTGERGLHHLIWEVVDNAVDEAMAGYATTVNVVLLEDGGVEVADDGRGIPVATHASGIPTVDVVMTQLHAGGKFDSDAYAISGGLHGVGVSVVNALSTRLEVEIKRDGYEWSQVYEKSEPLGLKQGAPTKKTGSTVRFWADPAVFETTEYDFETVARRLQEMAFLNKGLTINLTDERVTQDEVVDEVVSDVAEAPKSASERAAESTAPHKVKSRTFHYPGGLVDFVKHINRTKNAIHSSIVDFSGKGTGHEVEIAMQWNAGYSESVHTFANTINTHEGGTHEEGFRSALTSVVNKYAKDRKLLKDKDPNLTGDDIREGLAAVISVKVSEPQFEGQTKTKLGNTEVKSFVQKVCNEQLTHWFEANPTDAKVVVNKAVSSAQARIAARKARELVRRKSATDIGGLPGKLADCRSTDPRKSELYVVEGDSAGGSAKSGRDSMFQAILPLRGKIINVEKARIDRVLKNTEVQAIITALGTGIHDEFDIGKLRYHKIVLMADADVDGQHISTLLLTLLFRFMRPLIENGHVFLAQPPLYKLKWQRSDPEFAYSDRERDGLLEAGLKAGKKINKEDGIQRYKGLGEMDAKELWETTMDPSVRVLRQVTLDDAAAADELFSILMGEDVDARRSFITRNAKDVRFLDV
# Sequence (P9WG47 whole entry): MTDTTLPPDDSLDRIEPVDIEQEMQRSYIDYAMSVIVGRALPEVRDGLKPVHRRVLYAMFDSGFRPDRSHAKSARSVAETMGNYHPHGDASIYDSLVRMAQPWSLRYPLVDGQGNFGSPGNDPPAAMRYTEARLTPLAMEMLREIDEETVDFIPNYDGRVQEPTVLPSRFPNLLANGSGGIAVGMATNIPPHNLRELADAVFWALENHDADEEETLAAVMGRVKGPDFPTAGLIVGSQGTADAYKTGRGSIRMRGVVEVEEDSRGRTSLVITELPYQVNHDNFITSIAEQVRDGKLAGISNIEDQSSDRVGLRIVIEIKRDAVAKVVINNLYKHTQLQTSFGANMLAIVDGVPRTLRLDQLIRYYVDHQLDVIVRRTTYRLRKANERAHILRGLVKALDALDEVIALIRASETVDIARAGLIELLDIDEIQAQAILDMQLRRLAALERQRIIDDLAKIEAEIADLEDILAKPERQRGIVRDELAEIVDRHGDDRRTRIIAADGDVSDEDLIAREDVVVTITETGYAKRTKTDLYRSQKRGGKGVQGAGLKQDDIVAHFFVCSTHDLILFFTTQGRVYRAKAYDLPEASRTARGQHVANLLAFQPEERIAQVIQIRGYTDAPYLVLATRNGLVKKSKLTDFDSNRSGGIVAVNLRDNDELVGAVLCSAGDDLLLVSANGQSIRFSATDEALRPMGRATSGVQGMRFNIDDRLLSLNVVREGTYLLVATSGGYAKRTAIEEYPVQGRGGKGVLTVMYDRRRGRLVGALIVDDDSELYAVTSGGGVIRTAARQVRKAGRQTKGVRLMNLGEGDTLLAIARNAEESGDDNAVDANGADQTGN
# Test Summary: Inhibition of Mycobacterium tuberculosis DNA gyrase using relaxed pBR322 as substrate after 30 mins by supercoiling assay
pIC50: −log10 of the molar value.
Kindly return Y if reported pIC50 is no lower than 5; return N if it is lower.

Please indicate if the recorded pIC50 for O=C(NCc1ccc(Cl)cc1)N1CCN(c2nsc3ccccc23)CC1 meets or exceeds 5.
Y

Answer whether pIC50 of O=C(Nc1ccc(Cl)cc1)N1CCN(c2nsc3ccccc23)CC1 is greater than or equal to 5.
Y

Is pIC50 for O=[N+]([O-])c1ccc(NC(=S)N2CCN(c3nsc4ccccc34)CC2)cc1 at or above 5?
Y

Is pIC50 at least 5? Consider CCOC(=O)c1cc2cc(N3CCN(C(=O)Nc4ccc(C(C)=O)cc4)CC3)ccc2o1
Y

Decide: pIC50 of S=C(Nc1ccccc1)N1CCN(c2nsc3ccccc23)CC1 >= 5?
Y

Reported pIC50 at or above 5? CCOC(=O)c1cc2cc(N3CCN(C(=O)Nc4ccccc4)CC3)ccc2o1
Y

Quick check, pIC50 >= 5? CCOC(=O)c1cc2cc(N3CCN(C(=S)Nc4ccc(C(C)=O)cc4)CC3)ccc2o1
N

Please check the record COc1ccc(NC(=S)N2CCN(c3nsc4ccccc34)CC2)cc1 and state if its pIC50 is at or above 5.
Y

Dear colleague, could you confirm whether CCOC(=O)c1cc2cc(N3CCN(C(=O)Nc4ccc(Cl)cc4)CC3)ccc2o1 has pIC50 at or above 5?
N

In plain terms: is recorded pIC50 at least 5 for CCOC(=O)c1cc2cc(N3CCN(C(=S)Nc4ccc(OC)cc4)CC3)ccc2o1 ?
N

Tell me whether pIC50 is at least 5 here: S=C(NCc1ccccc1)N1CCN(c2nsc3ccccc23)CC1
N

Confirm if pIC50 reported for the compound S=C(NCc1ccc(Cl)cc1)N1CCN(c2nsc3ccccc23)CC1 is 5 or above.
Y

Decide: is the reported value of pIC50 for CCOC(=O)c1cc2cc(N3CCN(C(=O)NCc4ccc(Cl)cc4)CC3)ccc2o1 equal to or greater than 5?
Y

Does pIC50 meet or surpass 5 for S=C(Nc1ccc(Cl)cc1)N1CCN(c2nsc3ccccc23)CC1 ?
Y

* * *

Answer each item with its documented cytotoxicity at 72 h, 100 µM.
# Test Summary: Cytotoxicity against mouse RAW264.7 cells assessed as reduction in cell viability at 100 uM after 72 hrs by MTT assay
# Assay type: cell-based
# Test Parameters: read-out: INH
Expressed in %, but write only the number.

Provide measured cytotoxicity at 72 h, 100 µM value, entry: S=C(NCc1ccc(Cl)cc1)N1CCN(c2nsc3ccccc23)CC1
25.9

Supply recorded cytotoxicity at 72 h, 100 µM for CCOC(=O)c1cc2cc(N3CCN(C(=S)Nc4ccc(C(C)=O)cc4)CC3)ccc2o1 here.
21.2

Quickly give me recorded cytotoxicity at 72 h, 100 µM for S=C(Nc1ccccc1)N1CCN(c2nsc3ccccc23)CC1
39.3

Look up and state reported cytotoxicity at 72 h, 100 µM for COc1ccc(NC(=O)N2CCN(c3nsc4ccccc34)CC2)cc1
37.6

For the compound CCOC(=O)c1cc2cc(N3CCN(C(=O)NCc4ccccc4)CC3)ccc2o1 , give its reported cytotoxicity at 72 h, 100 µM.
40.9

Tell me cytotoxicity at 72 h, 100 µM reported for CC(=O)c1ccc(NC(=S)N2CCN(c3nsc4ccccc34)CC2)cc1
40.7

Answer with reported cytotoxicity at 72 h, 100 µM of CCOC(=O)c1cc2cc(N3CCN(C(=S)Nc4ccc(OC)cc4)CC3)ccc2o1
20.6

Give the reported cytotoxicity at 72 h, 100 µM for this compound. CCOC(=O)c1cc2cc(N3CCN(C(=O)NCc4ccc(Cl)cc4)CC3)ccc2o1
21.6

Quote cytotoxicity at 72 h, 100 µM reported for O=C(NCc1ccc(Cl)cc1)N1CCN(c2nsc3ccccc23)CC1 please.
29.1

Fill in cytotoxicity at 72 h, 100 µM for record O=C(NCc1ccccc1)N1CCN(c2nsc3ccccc23)CC1
30.2

Give a short answer stating reported cytotoxicity at 72 h, 100 µM for CCOC(=O)c1cc2cc(N3CCN(C(=O)Nc4ccc(C(C)=O)cc4)CC3)ccc2o1 .
21.6

Dear colleague, please send me the reported cytotoxicity at 72 h, 100 µM for CCOC(=O)c1cc2cc(N3CCN(C(=O)Nc4ccccc4)CC3)ccc2o1 when you can.
21.3

Please report the measured cytotoxicity at 72 h, 100 µM for S=C(NCc1ccccc1)N1CCN(c2nsc3ccccc23)CC1
19.1

Look up cytotoxicity at 72 h, 100 µM of CCOC(=O)c1cc2cc(N3CCN(C(=S)Nc4ccccc4)CC3)ccc2o1 and report it.
22.9

Please look at this compound and report its cytotoxicity at 72 h, 100 µM: COc1ccc(NC(=S)N2CCN(c3nsc4ccccc34)CC2)cc1
19

Please report the measured cytotoxicity at 72 h, 100 µM for CCOC(=O)c1cc2cc(N3CCN(C(=O)Nc4ccc([N+](=O)[O-])cc4)CC3)ccc2o1
19.6

Return cytotoxicity at 72 h, 100 µM for the following compound: CC(=O)c1ccc(NC(=O)N2CCN(c3nsc4ccccc34)CC2)cc1
20.2

Provide only the value of recorded cytotoxicity at 72 h, 100 µM for O=C(Nc1ccc([N+](=O)[O-])cc1)N1CCN(c2nsc3ccccc23)CC1
20.9

* * *

# Assay Target: DNA gyrase subunit B (Mycobacterium smegmatis) (UniProt P0C559)
# Sequence (P0C559 2-675 limits assumed): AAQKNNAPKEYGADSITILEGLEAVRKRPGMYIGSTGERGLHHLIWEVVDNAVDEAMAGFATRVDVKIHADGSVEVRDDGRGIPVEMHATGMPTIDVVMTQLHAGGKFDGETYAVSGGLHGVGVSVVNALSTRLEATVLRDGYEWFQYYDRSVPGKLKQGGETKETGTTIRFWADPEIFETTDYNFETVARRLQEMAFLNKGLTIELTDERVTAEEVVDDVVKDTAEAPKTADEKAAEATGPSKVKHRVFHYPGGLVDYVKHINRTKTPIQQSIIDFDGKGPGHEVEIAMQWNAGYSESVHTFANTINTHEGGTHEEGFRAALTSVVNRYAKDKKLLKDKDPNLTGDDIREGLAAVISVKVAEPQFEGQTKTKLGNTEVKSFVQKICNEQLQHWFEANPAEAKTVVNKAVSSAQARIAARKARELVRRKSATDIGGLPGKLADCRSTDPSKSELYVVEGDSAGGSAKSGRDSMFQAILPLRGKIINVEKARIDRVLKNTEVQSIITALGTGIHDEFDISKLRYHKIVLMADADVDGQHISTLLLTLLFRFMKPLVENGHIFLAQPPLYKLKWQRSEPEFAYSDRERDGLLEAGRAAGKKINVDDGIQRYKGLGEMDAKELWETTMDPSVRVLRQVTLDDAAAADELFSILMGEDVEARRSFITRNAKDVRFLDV
# Test Summary: Inhibition of purified Mycobacterium smegmatis GyrB ATPase activity at 50 to 100 uM after 100 mins by ATPase assay
# Test Parameters: Mycolicibacterium smegmatis
Attribute Measured: inhibition

Provide one value: measured inhibition of O=C(NCc1ccc(Cl)cc1)N1CCN(c2nsc3ccccc23)CC1
> 60%

Look up and report measured inhibition for this entry: O=C(NCc1ccccc1)N1CCN(c2nsc3ccccc23)CC1
> 60%

Give inhibition for CCOC(=O)c1cc2cc(N3CCN(C(=S)Nc4ccc([N+](=O)[O-])cc4)CC3)ccc2o1
> 60%

* * *

# Assay Target: DNA gyrase subunit B (Mycobacterium smegmatis)
# Test Summary: Inhibition of purified Mycobacterium smegmatis GyrB at 50 to 100 uM after 100 mins by ATPase assay
Attribute Measured: IC50 (µM)
# value in µM; strip the unit string

Using the record for CCOC(=O)c1cc2cc(N3CCN(C(=S)NCc4ccccc4)CC3)ccc2o1 , state its measured IC50.
20.4

Tell me measured IC50 for CCOC(=O)c1cc2cc(N3CCN(C(=O)NCc4ccccc4)CC3)ccc2o1 please.
4.32

Provide measured IC50 value, entry: S=C(Nc1ccc(Cl)cc1)N1CCN(c2nsc3ccccc23)CC1
9.32

Let me know recorded IC50 for S=C(NCc1ccc(Cl)cc1)N1CCN(c2nsc3ccccc23)CC1 , thanks.
11.3

Determine its reported IC50: O=C(NCc1ccc(Cl)cc1)N1CCN(c2nsc3ccccc23)CC1
6.88

Given the molecule CCOC(=O)c1cc2cc(N3CCN(C(=S)Nc4ccc(Cl)cc4)CC3)ccc2o1 , write its reported IC50.
35.2
